- assayTarget: gelsolin (Homo sapiens, UniProt P06396)
- Construct: His tag (cleaved yes); made in house; host or cells: E. coli Rosetta2 (DE3) pLysS, pSY5 plasmid
- Sequence (P06396 28-782): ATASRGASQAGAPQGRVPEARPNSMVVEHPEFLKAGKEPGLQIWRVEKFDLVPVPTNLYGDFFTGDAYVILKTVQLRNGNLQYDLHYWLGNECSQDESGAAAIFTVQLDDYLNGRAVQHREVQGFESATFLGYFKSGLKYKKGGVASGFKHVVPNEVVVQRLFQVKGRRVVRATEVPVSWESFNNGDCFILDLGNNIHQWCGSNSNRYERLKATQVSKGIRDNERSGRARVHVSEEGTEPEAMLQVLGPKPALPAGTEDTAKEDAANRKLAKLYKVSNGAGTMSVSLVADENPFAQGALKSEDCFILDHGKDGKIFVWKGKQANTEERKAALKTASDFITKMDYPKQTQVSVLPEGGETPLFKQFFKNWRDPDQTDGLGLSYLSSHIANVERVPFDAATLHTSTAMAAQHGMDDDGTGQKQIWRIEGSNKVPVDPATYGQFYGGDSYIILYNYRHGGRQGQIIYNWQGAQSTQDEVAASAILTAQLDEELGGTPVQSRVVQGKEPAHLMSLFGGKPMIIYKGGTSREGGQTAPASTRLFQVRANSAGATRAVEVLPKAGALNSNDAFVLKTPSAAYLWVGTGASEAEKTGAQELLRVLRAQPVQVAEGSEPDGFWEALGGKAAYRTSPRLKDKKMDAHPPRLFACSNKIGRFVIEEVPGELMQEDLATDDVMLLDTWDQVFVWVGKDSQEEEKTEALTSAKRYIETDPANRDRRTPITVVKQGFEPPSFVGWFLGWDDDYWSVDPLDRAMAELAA
- testMethodNotes: Labeled/unlabeled ATP competition on gelsolin (ATP-N anisotropy)
- Type: binding
- experimentalContext: 50 mM KCl, 1 mM MgCl2 (actin polymerizing salt), absence of calcium, competition with ATP-N

# compound, Kd
rows = [
    ("Nc1ncnc2c1ncn2[C@@H]1O[C@H](COP(=O)(O)OP(=O)(O)OP(=O)([O-])[O-])[C@@H](O)[C@H]1O.O.O.O.[Na+].[Na+] [ATP, ATP disodium trihydrate]", "2200 nM"),
]
